# TARGET OR TEST SYSTEM: acyl-CoA:cholesterol acyltransferase (ACAT) (Oryctolagus cuniculus, UniProt G1SFD9)
# Sequence (G1SFD9 1-524): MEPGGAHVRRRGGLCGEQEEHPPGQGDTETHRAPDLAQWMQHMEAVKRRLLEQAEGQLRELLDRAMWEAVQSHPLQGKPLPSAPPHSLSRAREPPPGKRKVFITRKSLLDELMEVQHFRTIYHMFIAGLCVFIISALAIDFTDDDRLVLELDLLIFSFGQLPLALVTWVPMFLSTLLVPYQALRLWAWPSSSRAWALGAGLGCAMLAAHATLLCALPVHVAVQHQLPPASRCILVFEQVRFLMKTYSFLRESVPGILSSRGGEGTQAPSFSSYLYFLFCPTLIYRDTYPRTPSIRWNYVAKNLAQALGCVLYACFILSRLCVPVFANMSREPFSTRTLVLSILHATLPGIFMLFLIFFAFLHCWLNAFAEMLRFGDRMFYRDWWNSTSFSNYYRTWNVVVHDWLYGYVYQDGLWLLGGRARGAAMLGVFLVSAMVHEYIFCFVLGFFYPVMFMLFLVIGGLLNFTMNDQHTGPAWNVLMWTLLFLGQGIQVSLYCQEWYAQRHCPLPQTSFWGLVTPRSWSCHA
REPORTED METRIC: IC50 (nM)

CC(C)c1cccc(C(C)C)c1NC(=O)[C@H](Cc1ccccc1)NC(=O)OC(C)(C)C; 350

[I] CC(C)c1cccc(C(C)C)c1NC(=O)CN(CC1(c2ccccc2)CCCC1)C(=S)Nc1ccccc1
[II] Cc1ccc(S(=O)(=O)N[C@@H](Cc2ccccc2)C(=O)Nc2c(C(C)C)cccc2C(C)C)cc1
Given the two records I and II , choose the one whose IC50 value is lower. When you have decided, please share the label of that item.
I
